Molecular target: CDK2/cyclin A (Homo sapiens, UniProt P24941)
Construct: made in house; host or cells: CDK2: insect cells (baculovirus); cyclin A: E. coli
Test: Inhibition of CDK2/cyclin A retinoblastoma kinase activity (Ki; % inhibition)
Assay type: biochemical
Details: at 0.03 μM
Listed molecules paired with reported CDK2 % Inhibition at 0.03 μM
QUANTITY NAME: CDK2 % Inhibition at 0.03 μM (%)

>  <MOLECULE>
COC(=O)c1ccccc1NC(=O)c1ccc(Nc2nc(N)c(C(=O)c3c(F)cccc3F)s2)cc1

>  <ENDPOINT VALUE>
−4

$$$$
>  <MOLECULE>
CN1CCCC1CCNC(=O)c1ccc(Nc2nc(N)c(C(=O)c3c(F)cccc3F)s2)cc1 (stereo not drawn)

>  <ENDPOINT VALUE>
10

$$$$
>  <MOLECULE>
Cc1ccc(CCNC(=O)c2ccc(Nc3nc(N)c(C(=O)c4c(F)cccc4F)s3)cc2)cc1

>  <ENDPOINT VALUE>
15

$$$$
